Biological target: BCL2 D103Y (Homo sapiens, UniProt P10415, D103Y)
Test: TR-FRET competitive binding assay, BCL2 D103Y
Details: Ki determined from IC50, read-out: TR_FRET EKI_Bcl2 D103Y
Experimental readout: pKi
Lab note — pKi values are minus log10 of concentrations in M.

1. Cc1c(N(C(=O)c2cc(-c3cc4c(cc3C(=O)N3Cc5ccccc5C[C@H]3C)CN(C(=O)Cc3ccc(OCCN5CC6(CCS6(=O)=O)C5)cc3)CC4)n(C)c2C)c2ccc(O)cc2)cc(C#N)n1C :: 9.55
2. Cc1c(C(=O)N(c2ccc(O)cc2)c2ccc3c(cnn3C)c2)cc(-c2cc3c(cc2C(=O)N2Cc4ccccc4C[C@H]2C)CN(C(=O)Cc2ccc(OCCN4CCOCC4)cc2)CC3)n1C :: 9.06
3. Cc1cc(OCCN2CCOCC2)c(F)cc1CC(=O)N1CCc2cc(-c3cc(C(=O)N(c4ccc(O)cc4)c4cc(C#N)n(C)c4C)c(C)n3C)c(C(=O)N3Cc4ccccc4C[C@H]3C)cc2C1 :: 9.74
4. Cc1c(N(C(=O)c2cc(-c3cc4c(cc3C(=O)N3Cc5ccccc5C[C@H]3C)CN(C(=O)Cc3ccc(OCCC5CCOCC5)nc3)CC4)n(C)c2C)c2ccc(O)cc2)cc(C#N)n1C :: 9.40

Query molecule follows.
INPUT: Field request: pKi | item: `Cc1c(N(C(=O)c2cc(-c3cc4c(cc3C(=O)N3Cc5ccccc5C[C@H]3CN3CCCC3)CN(C(=O)Cc3ccc(OCCN5CCN(CC(F)F)CC5)cc3)CC4)n(C)c2C)c2ccc(O)cc2)cc(C#N)n1C`
OUTPUT: 9.85

---

Collected pKi values appear next to each entry.
Target: BCL2 WT (Homo sapiens (Human), UniProt P10415)
Assay: TR-FRET competitive binding assay, BCL2 WT
Settings: Ki determined from IC50, read-out: TR_FRET EKI_Bcl2
Lab note — pKi values are minus log10 of concentrations in M.

1. Cc1c(C(=O)N(c2ccc(O)cc2)c2cnn(C)c2)cc(-c2cc3c(cc2C(=O)N2Cc4ccccc4C[C@H]2C)CN(C(=O)Cc2ccc(OCCN4CCOCC4)cc2F)CC3)n1C :: 10.41

INPUT: Field request: pKi | item: `Cc1c(N(C(=O)c2cc(-c3cc4c(cc3C(=O)N3Cc5ccccc5C[C@H]3C)CN(C(=O)Cc3ccc(OCCNCCF)cc3)CC4)n(C)c2C)c2ccc(O)cc2)cc(C#N)n1C`
OUTPUT: 10.51

INPUT: One more molecule: `Cc1c(N(C(=O)c2cc(-c3cc4c(cc3C(=O)N3Cc5ccccc5C[C@H]3C)CN(C(=O)Cc3ccc(OCCN5CCOCC5)cc3)CC4)n(C)c2C)c2ccccc2)cc(C#N)n1C`
OUTPUT: 10.11

---

Biological target: BCL2 G101V (Homo sapiens, UniProt P10415, G101V)
Experiment: TR-FRET competitive binding assay, BCL2 G101V
Details: BCL2 G101V; Ki determined from IC50; read-out: TR_FRET EKI_Bcl2 G101V
Protocol: The relative binding potency of each compound was determined in a competitive binding assay using time resolved-fluorescence resonance energy transfer (TR-FRET). […] The degree of binding or corresponding compound inhibition can be quantified by the TR-FRET signal between the terbium donor and fluorescein acceptor. […] TR-FRET measurements were performed on a Biotek Synergy Neo plate reader. […] The TR-FRET signal was calculated as the emission-ratio at 520 nm over 495 nm. […]
Experimental readout: Ki (nM)
Give just the number in nM; leave the unit off.

// worked examples, Ki included
1. COc1cccc(CC(=O)N2CCc3cc(-c4cc(C(=O)N(c5ccc(O)cc5)c5cc(C#N)n(C)c5C)c(C)n4C)c(C(=O)N4Cc5ccccc5C[C@H]4C)cc3C2)c1 :: 0.8
2. Cc1c(N(C(=O)c2cc(-c3cc4c(cc3C(=O)N3Cc5ccccc5C[C@H]3C)CN(C(=O)Cc3ccc(CCN5CCC(F)(F)CC5)cc3)CC4)n(C)c2C)c2ccc(O)cc2)cc(C#N)n1C :: 1

INPUT: Return Ki measured with BCL2 G101V (Homo sapiens, UniProt P10415, G101V) given this compound: `Cc1c(C(=O)N(c2ccc(O)cc2)c2cc(C#N)n(C(F)F)c2C)cc(-c2cc3c(cc2C(=O)N2Cc4ccccc4C[C@H]2CN2CCCCC2)CN(C(=O)Cc2ccc(OCCN4CCOCC4)cc2)CC3)n1C`
OUTPUT: 0.3

INPUT: One more compound: `Cc1c(N(C(=O)c2cc(-c3cc4c(cc3C(=O)N3Cc5ccccc5C[C@H]3C)CN(C(=O)c3ccccc3)CC4)n(C)c2C)c2ccc(O)cc2)cc(C#N)n1C`
OUTPUT: 1.3

INPUT: One more compound: `COC[C@@H]1Cc2ccccc2CN1C(=O)c1cc2c(cc1-c1cc(C(=O)N(c3ccc(O)cc3)c3cc(C#N)n(C)c3C)c(C)n1C)CCN(C(=O)Cc1ccc(OCCC3CCOCC3)cc1F)C2`
OUTPUT: 0.5
